targetOrTestSystem: Epidermal growth factor receptor (Homo sapiens) (UniProt P00533)
Sequence (P00533 whole entry, looked up): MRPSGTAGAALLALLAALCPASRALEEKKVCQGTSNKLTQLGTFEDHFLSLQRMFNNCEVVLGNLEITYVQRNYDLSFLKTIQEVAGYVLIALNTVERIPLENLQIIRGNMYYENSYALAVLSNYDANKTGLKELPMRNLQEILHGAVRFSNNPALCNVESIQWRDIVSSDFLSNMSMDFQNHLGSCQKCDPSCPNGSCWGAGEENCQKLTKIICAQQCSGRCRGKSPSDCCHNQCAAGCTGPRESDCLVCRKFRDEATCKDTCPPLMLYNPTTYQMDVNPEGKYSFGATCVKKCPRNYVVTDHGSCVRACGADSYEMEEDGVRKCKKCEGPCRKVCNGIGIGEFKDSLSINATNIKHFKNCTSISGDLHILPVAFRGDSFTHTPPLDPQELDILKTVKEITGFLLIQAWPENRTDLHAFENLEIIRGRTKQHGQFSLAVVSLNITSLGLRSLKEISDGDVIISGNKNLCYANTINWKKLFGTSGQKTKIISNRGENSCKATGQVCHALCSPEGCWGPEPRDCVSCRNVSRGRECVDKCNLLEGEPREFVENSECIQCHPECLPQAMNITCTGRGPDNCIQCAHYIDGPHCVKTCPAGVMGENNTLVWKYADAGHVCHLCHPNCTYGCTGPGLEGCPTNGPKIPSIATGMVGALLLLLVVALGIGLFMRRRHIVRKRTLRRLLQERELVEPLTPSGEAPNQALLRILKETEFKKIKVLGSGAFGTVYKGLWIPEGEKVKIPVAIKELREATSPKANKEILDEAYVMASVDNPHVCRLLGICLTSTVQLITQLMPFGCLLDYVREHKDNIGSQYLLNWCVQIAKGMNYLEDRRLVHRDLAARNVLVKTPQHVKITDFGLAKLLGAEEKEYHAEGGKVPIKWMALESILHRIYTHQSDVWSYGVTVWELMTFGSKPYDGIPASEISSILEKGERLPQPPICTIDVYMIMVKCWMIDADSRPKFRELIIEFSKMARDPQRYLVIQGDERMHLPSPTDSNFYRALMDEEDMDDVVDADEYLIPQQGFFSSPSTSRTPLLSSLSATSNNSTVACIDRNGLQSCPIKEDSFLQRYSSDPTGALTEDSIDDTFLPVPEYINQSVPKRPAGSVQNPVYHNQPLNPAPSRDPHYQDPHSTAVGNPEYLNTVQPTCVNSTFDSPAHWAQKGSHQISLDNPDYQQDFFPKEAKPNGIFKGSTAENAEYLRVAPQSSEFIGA
measurementDescription: EGFR binders on small-molecule microarrays, primary screen, biochemical, small-molecule microarray, 635 nm fluorescence (AID 1104);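 further: score merges 667 nm emission intensity with spot signal to noise over triplicate slides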
conditionInfo: EGFR binding, higher = more signal
reportedEndpoint: composite z-score
In your answer, state the number alone without any accompanying words.

## Task Determine from records and report composite z-score for "C=CCNC(=O)[C@H]1[C@@H]2C(=O)O[C@@H](c3ccccc3)[C@@H](c3ccccc3)N2[C@@H](c2ccc(OCCO)cc2)[C@]12C(=O)N(C(=O)OCCOC)c1ccccc12"
## Result 0.461

## Task Determine from records and report composite z-score for CC1CC/C=C\[C@H]2OC34C=CCN(c5ccc(Cl)cc5)C(=O)[C@H]3N(CCO)C(=O)[C@]4(C)C2C(=O)O1 (stereo not given in full)
## Result -0.483

## Task Determine from records and report composite z-score for CCCCCC1=C2CNC(CCC)(C(=O)OC)C=C2C(C)C1=O (stereo not given)
## Result -0.576

## Task Determine from records and report composite z-score for "CN(C)CCCNC(=O)[C@@]1(c2ccc([N+](=O)[O-])cc2)CC(=O)N(C2CCCCC2)[C@@H]1c1ccc(CO)cc1"
## Result -0.364

## Task Determine from records and report composite z-score for O=C1C2C=CC(C(O)C(c3ccccc3)c3ccccc3)N(n3cnnc3)C2C(=O)N1Cc1ccccc1 (stereo not given)
## Result -1.18
